Read-out: Fatty Acid-Binding Protein 1 (FABP1), FABP1 (gene 2168)
EXPERIMENT_NOTES: LTEA_HepaRG_FABP1: Life Technologies and Expression Analysis (LTEA) Assay for Fatty Acid-Binding Protein 1 (FABP1) using HepaRG (AID 2283494)
CONDITION_LABEL: mRNA level, 48 h; actives raise or lower the signal
Activity calls are given as the source filed them. The calls were made as follows: active = hit-call score of the fitted dose curve at least 0.9, where 1 is the maximum; inactive = score below 0.9.
READOUT_KIND: AC50

c1ccc2c(c1)-c1cccc3cccc-2c13 :: 50 µM (active)
CC(C)(C)OOC(C)(C)CCC(C)(C)OOC(C)(C)C :: inactive
CCC12COCN1COC2 :: inactive
CN(C)c1ccccc1 :: inactive

Provide measured AC50 value, entry: CCCCC(CC)COC(=O)c1ccc(C(=O)OCC(CC)CCCC)c(C(=O)OCC(CC)CCCC)c1 (stereo not given)
inactive

Given the compound CC(O)CCO (stereo not given) , write its reported AC50.
inactive

Please report the measured AC50 for "Clc1ccc(C(c2ccc(Cl)cc2)C(Cl)(Cl)Cl)cc1"
50 µM (active)

====

EXPERIMENT_NOTES: ATG_CMV_CIS: Attagene CIS-FACTORIAL HepG2 Assay for human CMV (Internal Marker) (AID 2282928);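 also: endpoint acts as a background internal control marker rather than a target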
CONDITION_LABEL: HepG2 CMV promoter reporter, transcription factor profiling; actives raise or lower the signal
Activity calls are given as the source filed them. Rule for the calls: active = hit-call score of the fitted dose curve at least 0.9, where 1 is the maximum; inactive = score below 0.9.
Output constraint: value belongs to yes (1) for active, no (0) for inactive

CO[C@@H]1[C@H](OC(=O)NC(=O)CCl)CC[C@]2(CO2)[C@H]1[C@@]1(C)O[C@@H]1CC=C(C)C :: no (0)

Could you check what this test reported for "COP(=S)(OC)SCN1C(=O)c2ccccc2C1=O" ?
no (0)

Name the outcome recorded for "ClC1=C(Cl)[C@]2(Cl)[C@H]3[C@H]([C@@H]4C=C[C@H]3C4)[C@@]1(Cl)C2(Cl)Cl" in the assay.
yes (1)

Please indicate how the test categorized "Clc1ccc(C(c2ccc(Cl)cc2)C(Cl)Cl)cc1" .
yes (1)

Per the assay record, what outcome was assigned to "Clc1ccc(C(c2ccc(Cl)cc2)C(Cl)(Cl)Cl)cc1" ?
yes (1)

====

Read-out: Monokine induced gamma interferon (MIG), CXCL9 (gene 4283)
EXPERIMENT_NOTES: BSK_CASM3C_MIG: BioMAP Diversity Plus: CASM3C Assay for Monokine induced gamma interferon (MIG) Biomarker Activity (AID 2283048);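 also: MIG protein level measured by ELISA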
CONDITION_LABEL: primary human coronary artery smooth muscle cells; actives raise or lower the signal
Calls of active or inactive are those of the source. The calls were made as follows: active = hit-call score of the fitted dose curve at least 0.9, where 1 is the maximum; inactive = score below 0.9.
Your response should consist of one outcome taken from active, inactive

Clc1ccc(C(c2ccc(Cl)cc2)C(Cl)(Cl)Cl)cc1 :: inactive
O=[N+]([O-])C(Br)(CO)CO :: active
Cc1ccc(N)cc1 :: inactive

Could you now look at the following compound, please?
Please indicate how the test categorized "Clc1ccc(Cl)c(Cl)c1" .
inactive

====

Read-out: Protein phosphatase 2A (PPP2R4), PTPA (gene 5524)
EXPERIMENT_NOTES: LTEA_HepaRG_PPP2R4: Life Technologies and Expression Analysis (LTEA) Assay for Protein phosphatase 2A (PPP2R4) using HepaRG (AID 2283522)
CONDITION_LABEL: mRNA level, 48 h; actives raise or lower the signal
Experimental: LTEA_HepaRG is a cell based, multiplexed-readout assay that uses HepaRG, a human liver cell line, with measurements taken at 48 hours after chemical dosing on a 96-well plate.LTEA_HepaRG_PPP2R4 is one of 102 assay component(s) measured in the LTEA HepaRG cell culture assay. It is a marker of Cell proliferation, survival, death.Data from the assay component LTEA_HepaRG_PPP2R4 was analyzed into 1 endpoint. […]
Calls of active or inactive are those of the source. Rule for the calls: active = hit-call score of the fitted dose curve at least 0.9, where 1 is the maximum; inactive = score below 0.9.
Parameter call: string, one of Yes for active, No for inactive

Worked set:
C=CCc1ccc2c(c1)OCO2 :: No
CCCCOC(=O)c1ccccc1C(=O)OCc1ccccc1 :: Yes

Proceed to the following item.
Short answer needed: outcome of this test for "Clc1ccc(Cl)c(Cl)c1" ?
No
